Every entry's value here was drawn from paper PMC9516332.

Tested on: 134 cancer cell lines
Test: Cell viability assay (ATPlite, 72 hours), IC50 on cancer cell line panel
Conditions: Homo sapiens, OVCAR-3, read-out: IC50 in cell proliferation assay, cell line OVCAR-3
quantity-name: pIC50
The meaning of pIC50 here: minus log10 of the concentration in molar units.

chemical-structure	quantity-name	value-reported
COC(=O)N[C@@H](C)CNc1nccc(-c2cn(C(C)C)nc2-c2cc(Cl)cc(NS(C)(=O)=O)c2F)n1	pIC50	6.16
Cc1cc(Nc2ncc(Cl)c(Nc3ccccc3S(=O)(=O)C(C)C)n2)c(OC(C)C)cc1C1CCNCC1	pIC50	5.29

State the recorded pIC50 for this entry: CC(C)(C)c1nc(-c2cccc(NS(=O)(=O)c3c(F)cccc3F)c2F)c(-c2ccnc(N)n2)s1
5.98

---

Below, each of the molecules is paired with its reported inhibition at 1 µM value.
Molecular target: panel of 255 wild-type kinases (Homo sapiens, UniProt Q8TDX7)
Sequence (Q8TDX7 whole entry): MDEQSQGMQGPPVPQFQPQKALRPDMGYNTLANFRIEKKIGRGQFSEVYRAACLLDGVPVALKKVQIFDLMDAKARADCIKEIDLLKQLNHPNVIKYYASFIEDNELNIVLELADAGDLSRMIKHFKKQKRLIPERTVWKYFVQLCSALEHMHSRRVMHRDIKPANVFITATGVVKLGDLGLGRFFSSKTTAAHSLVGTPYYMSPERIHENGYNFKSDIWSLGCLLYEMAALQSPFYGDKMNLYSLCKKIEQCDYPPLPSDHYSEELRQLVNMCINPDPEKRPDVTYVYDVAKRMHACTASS
Assay: Kinase panel profiling at 1 µmol/L (MSA or IMAP), percentage inhibition
Assay type: biochemical
Conditions: NEK7; 1 µmol/L single concentration; read-out: %-inhibition, NEK7
All answers are understood in %, so give the number only.

Previously resolved entries follow.
molecule	quantity-name	value-reported
COc1cc2ncnc(Nc3ccc(F)c(Cl)c3)c2cc1NC(=O)/C=C/CN1CCCCC1 [dacomitinib]	inhibition at 1 µM	-4.37
CCN1CCN(c2ccc(Nc3cc(N(C)C(=O)Nc4c(Cl)c(OC)cc(OC)c4Cl)ncn3)cc2)CC1 [infigratinib]	inhibition at 1 µM	-3.65
C[C@H]1Oc2cc(cnc2N)-c2c(nn(C)c2C#N)CN(C)C(=O)c2ccc(F)cc21 [lorlatinib]	inhibition at 1 µM	1.44

--- query ---
So what inhibition at 1 µM did Cn1cc(-c2cc3c(N4CCN(c5ncc([C@@](C)(N)c6ccc(F)cc6)cn5)CC4)ncnn3c2)cn1 [avapritinib] get with panel of 255 wild-type kinases (Homo sapiens, UniProt Q8TDX7)?
-11

---

Tested on: 134 cancer cell lines
Experiment: Cell viability assay (ATPlite, 72 hours), IC50 on cancer cell line panel
Settings: Homo sapiens, J82, read-out: IC50 in cell proliferation assay
quantity-name: pIC50
The meaning of pIC50 here: minus log10 of the concentration in molar units.

compound	test-target	value-reported
C=CC(=O)N1CCC[C@@H](n2nc(-c3ccc(Oc4ccccc4)cc3)c3c(N)ncnc32)C1 [ibrutinib]	134 cancer cell lines	4.59

--- query ---
So what pIC50 did CCN1C(=O)N(c2c(F)c(OC)cc(OC)c2F)Cc2cnc3[nH]c(CN4CCOCC4)cc3c21 [pemigatinib] get with 134 cancer cell lines?
5.95

---

Molecular target: panel of 255 wild-type kinases (Homo sapiens, UniProt Q9H1R3)
Sequence (Q9H1R3 whole entry): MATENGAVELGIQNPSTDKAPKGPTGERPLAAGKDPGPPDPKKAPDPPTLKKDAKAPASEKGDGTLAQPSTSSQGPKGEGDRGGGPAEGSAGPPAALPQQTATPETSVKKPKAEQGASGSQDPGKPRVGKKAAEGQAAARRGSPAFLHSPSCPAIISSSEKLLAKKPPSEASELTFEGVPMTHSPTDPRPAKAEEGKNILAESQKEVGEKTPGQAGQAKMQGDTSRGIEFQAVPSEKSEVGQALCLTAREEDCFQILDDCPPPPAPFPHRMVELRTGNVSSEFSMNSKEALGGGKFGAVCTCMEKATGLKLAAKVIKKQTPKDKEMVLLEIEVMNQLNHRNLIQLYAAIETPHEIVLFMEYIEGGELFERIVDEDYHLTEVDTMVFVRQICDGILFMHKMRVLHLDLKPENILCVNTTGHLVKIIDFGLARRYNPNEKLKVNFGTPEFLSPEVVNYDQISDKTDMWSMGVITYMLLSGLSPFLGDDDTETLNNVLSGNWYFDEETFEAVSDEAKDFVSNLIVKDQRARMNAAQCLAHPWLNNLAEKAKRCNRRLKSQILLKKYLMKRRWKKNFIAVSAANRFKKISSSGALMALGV
Assay: Kinase panel profiling at 1 µmol/L (MSA or IMAP), percentage inhibition
Type: biochemical
Settings: kinase skMLCK; 1 µmol/L single concentration; read-out: %-inhibition at 1 µmol/L, skMLCK
quantity-name: inhibition at 1 µM (%)
All answers are understood in %, so give the number only.

chemical-structure	test-target	value-reported
Cn1cnc2c(F)c(Nc3ccc(Br)cc3F)c(C(=O)NOCCO)cc21	panel of 255 wild-type kinases (Homo sapiens, UniProt Q9H1R3)	-5.4

State the recorded inhibition at 1 µM for this entry: COc1cc2ncnc(Nc3ccc(F)c(Cl)c3)c2cc1NC(=O)/C=C/CN1CCCCC1
10

Can you handle COC(=O)N[C@@H](C)CNc1nccc(-c2cn(C(C)C)nc2-c2cc(Cl)cc(NS(C)(=O)=O)c2F)n1 next?
-4.51

---

Molecular target: UniProt:Q8IY84
Sequence (Q8IY84 whole entry): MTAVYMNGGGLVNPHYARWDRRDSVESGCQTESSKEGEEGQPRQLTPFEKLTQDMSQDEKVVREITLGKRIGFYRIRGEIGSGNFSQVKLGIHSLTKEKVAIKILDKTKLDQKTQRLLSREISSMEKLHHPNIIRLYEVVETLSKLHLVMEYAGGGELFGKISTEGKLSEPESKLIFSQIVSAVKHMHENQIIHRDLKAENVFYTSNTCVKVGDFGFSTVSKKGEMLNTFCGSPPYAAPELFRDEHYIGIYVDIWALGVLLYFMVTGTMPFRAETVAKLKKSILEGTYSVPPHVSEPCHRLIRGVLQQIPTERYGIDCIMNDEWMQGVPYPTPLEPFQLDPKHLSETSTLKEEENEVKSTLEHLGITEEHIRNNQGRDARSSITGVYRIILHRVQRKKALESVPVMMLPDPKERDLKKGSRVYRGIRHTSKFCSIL
Assay: Kinase panel profiling at 1 µmol/L (MSA or IMAP), percentage inhibition
Assay type: biochemical
Details: NIM1K; 1 µmol/L single concentration; read-out: %-inhibition, NIM1K
Below, each of the compounds is paired with its reported inhibition at 1 µM value.
Remember to put the unit after the number in your answer.

Previously resolved entries follow.
compound	inhibition at 1 µM
O=C(Nc1cnn2ccc(N3CCC[C@@H]3c3cc(F)ccc3F)nc12)N1CC[C@H](O)C1 [larotrectinib]	-1.85%
COC(=O)N[C@@H](C)CNc1nccc(-c2cn(C(C)C)nc2-c2cc(Cl)cc(NS(C)(=O)=O)c2F)n1 [encorafenib]	-12%
CN1CCN(c2ccc(C(=O)Nc3n[nH]c4ccc(Cc5cc(F)cc(F)c5)cc34)c(NC3CCOCC3)c2)CC1 [entrectinib]	-1.5%
C[C@H]1Oc2cc(cnc2N)-c2c(nn(C)c2C#N)CN(C)C(=O)c2ccc(F)cc21 [lorlatinib]	1.32%
Cc1cc(Nc2ncnc3ccc(NC4=NC(C)(C)CO4)cc23)ccc1Oc1ccn2ncnc2c1 [tucatinib]	1.49%
C[C@H](Nc1ncnc2nc[nH]c12)c1cc2cccc(Cl)c2c(=O)n1-c1ccccc1 [duvelisib]	-3.41%
CCn1c(=O)c(-c2cc(NC(=O)Nc3ccccc3)c(F)cc2Br)cc2cnc(NC)cc21 [ripretinib]	0.056%
Cn1cnc2c(F)c(Nc3ccc(Br)cc3Cl)c(C(=O)NOCCO)cc21 [selumetinib]	-0.385%
C=CC(=O)N1CCC([C@@H]2CCNc3c(C(N)=O)c(-c4ccc(Oc5ccccc5)cc4)nn32)CC1 [zanubrutinib]	-1.66%
COc1cc2ncnc(Nc3ccc(F)c(Cl)c3)c2cc1NC(=O)/C=C/CN1CCCCC1 [dacomitinib]	1.1%

State the recorded inhibition at 1 µM for this entry: COc1ccc(CN2C3CC2CN(c2ccc(-c4cc(OCC(C)(C)O)cn5ncc(C#N)c45)cn2)C3)cn1 [selpercatinib]
-2%

---

Biological target: panel of 255 wild-type kinases (Homo sapiens)
Sequence (P42680 1-631): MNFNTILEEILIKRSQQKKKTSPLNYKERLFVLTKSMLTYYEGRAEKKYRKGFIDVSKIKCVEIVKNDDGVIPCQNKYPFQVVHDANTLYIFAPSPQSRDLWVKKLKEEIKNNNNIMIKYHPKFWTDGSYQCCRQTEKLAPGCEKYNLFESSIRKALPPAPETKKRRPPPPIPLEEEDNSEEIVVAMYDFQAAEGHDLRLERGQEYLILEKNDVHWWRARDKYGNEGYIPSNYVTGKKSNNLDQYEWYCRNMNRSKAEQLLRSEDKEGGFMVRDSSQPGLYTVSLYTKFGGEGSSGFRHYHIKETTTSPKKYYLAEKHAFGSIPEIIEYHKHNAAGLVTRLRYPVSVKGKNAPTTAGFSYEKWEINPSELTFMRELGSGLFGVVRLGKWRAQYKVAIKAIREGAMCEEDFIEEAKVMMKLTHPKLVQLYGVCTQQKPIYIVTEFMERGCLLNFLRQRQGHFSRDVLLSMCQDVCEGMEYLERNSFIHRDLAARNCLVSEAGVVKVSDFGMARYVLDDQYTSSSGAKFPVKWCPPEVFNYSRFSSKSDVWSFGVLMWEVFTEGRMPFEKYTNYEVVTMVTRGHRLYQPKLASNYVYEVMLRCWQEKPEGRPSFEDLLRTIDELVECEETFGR
Test: Kinase panel profiling at 1 µmol/L (MSA or IMAP), percentage inhibition
Type: biochemical
Details: kinase TEC; 1 µmol/L single concentration; read-out: %-inhibition at 1 µmol/L, TEC
Assign class by inhibition at 1 µM: not lower than 20% means YES; lower than 20% means NO.

Would you please look over these solved cases?
compound	test-target	assigned-category
CCN1C(=O)N(c2c(F)c(OC)cc(OC)c2F)Cc2cnc3[nH]c(CN4CCOCC4)cc3c21 [pemigatinib]	panel of 255 wild-type kinases (Homo sapiens)	NO
CO[C@]1(C(=O)N[C@@H](C)c2ccc(-n3cc(F)cn3)nc2)CC[C@H](c2nc(C)cc(Nc3cc(C)[nH]n3)n2)CC1 [pralsetinib]	panel of 255 wild-type kinases (Homo sapiens)	YES
CCn1c(=O)c(-c2cc(NC(=O)Nc3ccccc3)c(F)cc2Br)cc2cnc(NC)cc21 [ripretinib]	panel of 255 wild-type kinases (Homo sapiens)	NO
Cn1cc(-c2cc3c(N4CCN(c5ncc([C@@](C)(N)c6ccc(F)cc6)cn5)CC4)ncnn3c2)cn1 [avapritinib]	panel of 255 wild-type kinases (Homo sapiens)	NO
C[C@H]1Oc2cc(cnc2N)-c2c(nn(C)c2C#N)CN(C)C(=O)c2ccc(F)cc21 [lorlatinib]	panel of 255 wild-type kinases (Homo sapiens)	NO
CN1CCN(c2ccc(C(=O)Nc3n[nH]c4ccc(Cc5cc(F)cc(F)c5)cc34)c(NC3CCOCC3)c2)CC1 [entrectinib]	panel of 255 wild-type kinases (Homo sapiens)	YES

Now for another entry.
Check this compound for inhibition at 1 µM at or above 20%: Cc1cc(Nc2ncnc3ccc(NC4=NC(C)(C)CO4)cc23)ccc1Oc1ccn2ncnc2c1 [tucatinib]
NO

---

Biological target: panel of 255 wild-type kinases (Homo sapiens, UniProt P42680)
Sequence (P42680 1-631): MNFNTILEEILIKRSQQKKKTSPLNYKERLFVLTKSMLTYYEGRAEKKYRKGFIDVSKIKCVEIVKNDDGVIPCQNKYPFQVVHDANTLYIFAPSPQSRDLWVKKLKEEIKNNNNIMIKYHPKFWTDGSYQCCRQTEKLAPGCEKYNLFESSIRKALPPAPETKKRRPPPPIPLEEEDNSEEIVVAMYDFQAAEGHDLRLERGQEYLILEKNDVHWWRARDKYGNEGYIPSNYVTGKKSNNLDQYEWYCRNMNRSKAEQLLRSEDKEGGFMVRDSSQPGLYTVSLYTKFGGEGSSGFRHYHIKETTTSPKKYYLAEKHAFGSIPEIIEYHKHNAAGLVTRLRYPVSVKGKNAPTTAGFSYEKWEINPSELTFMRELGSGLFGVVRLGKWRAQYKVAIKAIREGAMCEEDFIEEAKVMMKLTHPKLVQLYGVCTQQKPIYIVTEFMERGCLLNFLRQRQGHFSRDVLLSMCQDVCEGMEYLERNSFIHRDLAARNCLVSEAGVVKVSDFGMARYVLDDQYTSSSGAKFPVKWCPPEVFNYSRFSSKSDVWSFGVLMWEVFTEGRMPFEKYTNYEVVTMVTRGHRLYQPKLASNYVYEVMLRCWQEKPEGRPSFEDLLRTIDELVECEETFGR
Test: Kinase panel profiling at 1 µmol/L (MSA or IMAP), percentage inhibition
Assay type: biochemical
Conditions: kinase TEC; 1 µmol/L single concentration; read-out: %-inhibition at 1 µmol/L, TEC
Below, each of the molecules is paired with its reported inhibition at 1 µM value.
All answers are understood in %, so give the number only.

chemical-structure	uom	inhibition at 1 µM
O=C(Nc1cnn2ccc(N3CCC[C@@H]3c3cc(F)ccc3F)nc12)N1CC[C@H](O)C1	%	1.59
Cn1cnc2c(F)c(Nc3ccc(Br)cc3F)c(C(=O)NOCCO)cc21	%	0.674
COc1ccc(CN2C3CC2CN(c2ccc(-c4cc(OCC(C)(C)O)cn5ncc(C#N)c45)cn2)C3)cn1	%	37

So what inhibition at 1 µM did CCc1nc(C(N)=O)c(Nc2ccc(N3CCC(N4CCN(C)CC4)CC3)c(OC)c2)nc1NC1CCOCC1 get with panel of 255 wild-type kinases (Homo sapiens, UniProt P42680)?
44

Can you handle Cc1nc(NC(=O)N2CCC[C@H]2C(N)=O)sc1-c1ccnc(C(C)(C)C(F)(F)F)c1 next?
-0.644

Can you handle COC(=O)N[C@@H](C)CNc1nccc(-c2cn(C(C)C)nc2-c2cc(Cl)cc(NS(C)(=O)=O)c2F)n1 next?
-1.53

Can you handle COc1cc2ncnc(Nc3ccc(F)c(Cl)c3)c2cc1NC(=O)/C=C/CN1CCCCC1 next?
20

Can you handle FC(F)(F)c1ccc(CNc2ccc(Cc3c[nH]c4ncc(Cl)cc34)cn2)cn1 next?
-0.0585

Can you handle CCN1CCN(c2ccc(Nc3cc(N(C)C(=O)Nc4c(Cl)c(OC)cc(OC)c4Cl)ncn3)cc2)CC1 next?
7

Can you handle C[C@H](Nc1ncnc2nc[nH]c12)c1cc2cccc(Cl)c2c(=O)n1-c1ccccc1 next?
1.84

Can you handle Cn1cnc2c(F)c(Nc3ccc(Br)cc3Cl)c(C(=O)NOCCO)cc21 next?
16
